FYI, the data here is from patent US20260176232A1.

- Tested on: NLRP1-mediated inflammasome activity
- Test Method Notes: IC50 curve, L18-MDP-induced IL-1β secretion in LPS-primed immortalized BMDMs
- Type: cell-based, murine
- Experimental Parameters: L18-MDP 100 μg/mL; drug 3.9-350 μM; FIG. 4B; read-out: half maximal inhibitory concentration (IC50), NLRP1-mediated inflammasome activity
Measurement Kind: IC50 (µM)
Give your result in µM as a bare value.

Ask: // query IC50 value for entry CCCN(CCC)S(=O)(=O)c1ccc(-c2ccc(CCCC(=O)O)cc2)cc1
Result: 30
